B1: LINE1-full (parent)
chain: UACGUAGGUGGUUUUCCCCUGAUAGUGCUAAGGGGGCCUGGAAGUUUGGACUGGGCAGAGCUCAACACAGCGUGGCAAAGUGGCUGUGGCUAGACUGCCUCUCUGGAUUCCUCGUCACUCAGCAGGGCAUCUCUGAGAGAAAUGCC

# Variants of: B1
# PROTOCOL TEXT: self-cleavage, relative activity (ratio to wild type); higher = more cleavage; in vitro, sequencing; the parent is a self-cleaving ribozyme
METRIC: self-cleavage
// response body must contain only the number

These recorded examples may help you get a feel for the data.
| RESIDUE SEQUENCE | self-cleavage |
| --- | --- |
| UACGUAGGUGGUUUUCCCCUGGUAGUGCUAAGGGGGCCUAGAAGUUUGGACUGGGCAGAGCUCAACACAGCGUGGCAAAGUGGCUGUGGCUAGACUGCCUCUCUGGAUUCCUCGUCACUCAGCAGGGCAUCUCUGAGAGAAAUGCC [A22G G40A] | 0.55 |
| UACGUAGGUGGUUUUCCCCUGAUAGUGCUAAGGGGGCCUGGAAGUUUGGACUGGGCAGAGCUCAACACAGCGUGGCAAAGUGGCUGUGGUUAGACUGCCUCUCUGGAUUCCUCGCCACUCAGCAGGGCAUCUCUGAGAGAAAUGCC [C90U U115C] | 0.06 |
| UACGUAGGUGGUUUUCCCCUGAUAGUGCUGAGGGGGCCUGGAAGUUUGGACUGGGCAGAGCUCAACACAGCGUGGCAAAGUGGCUGUGGCUAGACUGCCUCUCUGGAUUCCUCGUCACUCAGCAGGGCAUCUCUGAGAGCAAUGCC [A30G A140C] | 0.93 |

-- ask Query (variant): UACGUAGGUGGUUUUCCCCUGAUAGUGCUAAGGGGGCCUGGAAGUUUGGACUGGGCAGAGCCCAACACAGCGUGGCAAAGUGGCUGUGGCUAGACCGCCUCUCUGGAUUCCUCGUCACUCAGCAGGGCAUCUCUGAGAGAAAUGCC [U62C U96C] ; field requested: self-cleavage
-- reply 0.06

-- ask Another variant: UACGUAGGUGGUUUUCCCCCGAUAGUGCUAAGGGGGCCUGGAAGUUUGGACUGGGCAGAGCUCAACACAGCGUGGCAAAGUGGCUGUGGCUAGACUGCCUCUCUGGAUUCCUCGUCACUCAGCAGGGCAUCUCUGAGAGAAAUGCC [U20C]
-- reply 1.37

-- ask Another variant: UACGUAGGUGGUUUUCCCCUGAUAGUGCUAAGGGGGCCUGGAAGUUUGGACUGGGCAGAGCUCAACACAGCGCGGCAAAGUGGCUGUGGCUAGACUGCCUCUCUGGAUUCCUCGUCACUCAGCAGGGCAUCUCUAAGAGAAAUGCC [U73C G135A]
-- reply 1.07

-- ask Another variant: UACGUAGGUGGUUUUCCCCUGAUAAUGCUAAGGGGGCCUGGAAGUAUGGACUGGGCAGAGCUCAACACAGCGUGGCAAAGUGGCUGUGGCUAGACUGCCUCUCUGGAUUCCUCGUCACUCAGCAGGGCAUCUCUGAGAGAAAUGCC [G25A U46A]
-- reply 1.42

-- ask Another variant: UACGUAGGUGGUUUUCCCCUGAUAGUGCUAAGGGGGCCUGGAAGUUUGGACUGGGCAGAGCUCAACACAGCGUGGCUAAGUGGCUGUGGCUACACUGCCUCUCUGGAUUCCUCGUCACUCAGCAGGGCAUCUCUGAGAGAAAUGCC [A77U G93C]
-- reply 0.03

-- ask Another variant: UACGUAGGUGGUUUUCCCCCGAUAGUGCUAAGGGGGCCUGGAAGUUUGGACUGGGCAGAGCUCAACACAGCGUGGCAAAGUGGCUGUGGCUCGACUGCCUCUCUGGAUUCCUCGUCACUCAGCAGGGCAUCUCUGAGAGAAAUGCC [U20C A92C]
-- reply 0.14

-- ask Another variant: UACGUAGGUGAUUUUCCCCUGAUAGUGCUAAGGGGGCCUGGAAGUUUGGACUGGGCAGAGCUCAACACAGCGUGGCAAAGUGGCUGUGGCUAGACUGCCUCUCUGGAUUCCUCGUCACUCAGCAGGGCAUCCCUGAGAGAAAUGCC [G11A U132C]
-- reply 1.03

-- ask Another variant: UACGUAGGUGGUUUUCCCCUGAUAGUGCUAAGGGGGCCUGGAAGUUUGGACUGGGUAGAGCUCAACACAGCGUGGCAAAGUGGCUGUGGCUAGACUGCCUCUCUGGAUUCCUCGUCACUCAGCAGGGCAUCUCUGAGAGAAAUGCC [C56U]
-- reply 0.11

-- ask Another variant: UACGUAGGUGGUUUUCCCCUGAUAGUGCUUAGGGGGCCUGGAAGUUUGGACUGGGCAGAGCUCAACACAGCGUGGCAAAGUGGCUGUGGCUAGACUGCCUCUCUGGAUUCCUCGUCACUCAGCGGGGCAUCUCUGAGAGAAAUGCC [A30U A124G]
-- reply 0.84

-- ask Another variant: UACGUAGGUGGUUUUCCCCUGAUAGUGCUAAGGGGGCCUGGAAGUUUGGACUGGGCAGAGCUCAACACAGCGUGGCAAAGUGGCCGUGGCUAGACUGCCUCUCUGGAUUCCUCGUCACUCAGCAGGGCAUCUCUGAGAGAAAUGCU [U85C C146U]
-- reply 0.27

-- ask Another variant: UACGUAGGAGGUUUUCCCCUGAUAGUGCUAAGGGGGCCUGGAAGUUUGGACUGGGCAGAGCUCAACACAACGUGGCAAAGUGGCUGUGGCUAGACUGCCUCUCUGGAUUCCUCGUCACUCAGCAGGGCAUCUCUGAGAGAAAUGCC [U9A G70A]
-- reply 0.12

-- ask Another variant: UACGUAGGUGGUUUUCCCCUGAUAGUGCUAAGGGGGCCUGGAAGUUUGGACUGGGCAGAGCUCAACACAGCGUGGCAAAGUGGCUGUGGCUAGACUGCCUCUCUGGAUUCCUCGCCACUCAGCAGGGCAUCUCUGAGAGAAUUGCC [U115C A142U]
-- reply 1.56

-- ask Another variant: UACGUAGGUGGUUUCCCCCUGAUAGUGCUAAGGGGGCCUGGAAGUUUGGACUGGGCAGAGCUCAGCACAGCGUGGCAAAGUGGCUGUGGCUAGACUGCCUCUCUGGAUUCCUCGUCACUCAGCAGGGCAUCUCUGAGAGAAAUGCC [U15C A65G]
-- reply 0.1

-- ask Another variant: UACGUAGUUGGUUUUCCCCUGAUAGUGCUAAGGGGGCCUGGAAGUUUGGACUGGGCAGAGCUCAACACAGCGUGGCAAAGUGGCUGUGGCUAGACUGCCUCUCUGGAUUCCUCGUCACACAGCAGGGCAUCUCUGAGAGAAAUGCC [G8U U119A]
-- reply 1.51
